Provenance of the data: patent US20060229240A1

# system under test: T1, PTH/PTHrP receptor (P1R), wild-type, full-length (human, UniProt Q03431 27-593)
# T1 sequence (looked up): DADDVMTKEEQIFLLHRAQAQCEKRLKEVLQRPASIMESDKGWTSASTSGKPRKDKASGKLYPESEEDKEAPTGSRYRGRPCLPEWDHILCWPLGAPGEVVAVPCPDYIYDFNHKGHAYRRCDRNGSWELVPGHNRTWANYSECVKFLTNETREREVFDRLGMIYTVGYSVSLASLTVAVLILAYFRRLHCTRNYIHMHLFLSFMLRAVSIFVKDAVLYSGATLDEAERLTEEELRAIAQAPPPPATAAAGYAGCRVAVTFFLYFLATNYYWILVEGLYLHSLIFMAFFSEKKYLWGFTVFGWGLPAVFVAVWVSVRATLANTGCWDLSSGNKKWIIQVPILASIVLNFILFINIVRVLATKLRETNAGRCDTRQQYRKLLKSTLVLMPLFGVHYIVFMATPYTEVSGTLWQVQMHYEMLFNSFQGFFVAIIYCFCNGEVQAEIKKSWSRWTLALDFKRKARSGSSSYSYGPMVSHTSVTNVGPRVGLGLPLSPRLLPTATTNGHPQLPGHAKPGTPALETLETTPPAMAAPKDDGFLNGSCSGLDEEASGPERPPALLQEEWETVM
# assay protocol: cell-based or functional assay
No end group written: not given here.
experimental endpoint: cAMP EC50 (µM)
The reply should be a number in µM, with the unit left off.

Some solved entries appear below for comparison.
| binder | cAMP EC50, µM |
| --- | --- |
| SVSEIQLMHALGKHLNSMERVEWLRKKLQDVHNY-NH2 [[Ala^10]PTH(1-34)] | 3 |
| SVSEIQLMHNLGKHLNSMERVEWLRKKLQDVHNY-NH2 (Human PTH(1-34) analog with Tyr at 34; also called [Tyr^34]hPTH(1-34)NH2; PTH(1-34) scaffold peptide) [PTH(1-34) ([Tyr^34]hPTH(1-34)amide)] | 1.9 |
| SVSEIALMHALGKHLNSMERVEWLRKKLQDVHNY-NH2 (Double Ala analog of [Tyr^34]hPTH(1-34)amide) [[Ala^6,10]PTH(1-34)] | 2.2 |

Now look at this entry.
Dear colleague, I am looking for the recorded cAMP EC50 of the following binder: SVSEIALMHNLGKHLNSMERVEWLRKKLQDVHNY-NH2 (Gln6->Ala analog of [Tyr^34]hPTH(1-34)amide) [[Ala^6]PTH(1-34)]
4.9
